# TARGET_OR_TEST_SYSTEM: rat mGluR5 (Rattus norvegicus, UniProt P31424)
# Construct: expressed in transfected cells; host or cells: human embryonic kidney (HEK) cells
# Sequence (P31424 21-1203): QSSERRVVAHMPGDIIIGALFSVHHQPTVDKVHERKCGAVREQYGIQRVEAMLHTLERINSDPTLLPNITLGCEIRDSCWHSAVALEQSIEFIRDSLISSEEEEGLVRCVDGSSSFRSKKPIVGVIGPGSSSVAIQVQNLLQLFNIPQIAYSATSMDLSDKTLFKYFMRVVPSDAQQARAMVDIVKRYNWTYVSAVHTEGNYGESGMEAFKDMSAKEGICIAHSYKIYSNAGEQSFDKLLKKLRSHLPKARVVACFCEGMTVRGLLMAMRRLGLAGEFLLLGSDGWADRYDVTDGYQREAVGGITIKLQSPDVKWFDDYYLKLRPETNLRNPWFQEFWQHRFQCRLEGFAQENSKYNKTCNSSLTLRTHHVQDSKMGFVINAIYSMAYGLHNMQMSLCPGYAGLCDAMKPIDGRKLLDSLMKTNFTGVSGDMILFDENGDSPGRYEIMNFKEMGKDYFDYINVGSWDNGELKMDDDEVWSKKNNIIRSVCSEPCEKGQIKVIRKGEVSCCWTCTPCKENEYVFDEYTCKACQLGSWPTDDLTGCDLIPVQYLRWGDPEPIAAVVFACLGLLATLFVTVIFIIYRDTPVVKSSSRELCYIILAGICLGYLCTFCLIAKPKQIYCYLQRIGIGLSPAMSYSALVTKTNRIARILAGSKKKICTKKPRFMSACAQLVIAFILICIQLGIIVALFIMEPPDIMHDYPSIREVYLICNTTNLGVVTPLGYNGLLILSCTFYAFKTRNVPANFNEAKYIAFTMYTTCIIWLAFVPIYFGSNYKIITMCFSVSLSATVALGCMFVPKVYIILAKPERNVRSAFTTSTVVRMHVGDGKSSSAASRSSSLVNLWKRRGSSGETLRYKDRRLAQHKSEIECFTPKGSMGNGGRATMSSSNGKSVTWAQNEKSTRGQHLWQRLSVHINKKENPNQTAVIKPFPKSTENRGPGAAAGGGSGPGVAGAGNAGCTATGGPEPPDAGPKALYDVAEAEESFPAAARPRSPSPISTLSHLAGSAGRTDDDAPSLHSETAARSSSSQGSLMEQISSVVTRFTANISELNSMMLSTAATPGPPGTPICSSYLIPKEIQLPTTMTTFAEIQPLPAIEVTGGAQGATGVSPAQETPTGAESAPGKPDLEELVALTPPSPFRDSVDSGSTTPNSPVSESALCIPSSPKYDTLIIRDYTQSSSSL
# PROTOCOL_DESCRIPTION: Potentiation of glutamate response, Ca2+ fluorescence (FDSS) in HEK cells transfected with rat mGluR5
# Assay type: cell-based
# APPLIED_CONDITIONS: read-out: EC50 as an mGluR5 potentiator
METRIC: EC50

Exercise: Look up and report measured EC50 for this entry: C[C@H](NC(=O)c1ccc(OCc2ccccc2)nc1)C1CCCCC1
Key: > 10 µM

----------
# TARGET_OR_TEST_SYSTEM: rat mGluR5 (Rattus norvegicus)
# Construct: expressed in transfected cells; host or cells: human embryonic kidney (HEK) cells
# PROTOCOL_DESCRIPTION: Potentiation of glutamate response, Ca2+ fluorescence (FDSS) in HEK cells transfected with rat mGluR5
# Assay type: cell-based
# APPLIED_CONDITIONS: Table 1; potentiation of mGluR5 response to glutamate; read-out: EC50
METRIC: EC50 (µM)
Number in µM, nothing else.

Exercise: Look up and report measured EC50 for this entry: CC(C)NC(=O)c1ccc(OCc2cccc(F)c2)nc1 [Example 1.2c.4]
Key: 1

Exercise: Look up and report measured EC50 for this entry: CCCCOc1ccc(C(=O)Nc2ccc(F)cn2)cn1 [Example 1.2j.4]
Key: 1.5

Exercise: Look up and report measured EC50 for this entry: O=C(c1ccc(OCc2ccccc2)nc1)N1CCC1 [Example 1.2a.10]
Key: 3.7

Exercise: Look up and report measured EC50 for this entry: Cc1csc(NC(=O)c2ccc(OCc3ccccc3)nc2)n1 [Example 1.2a.20]
Key: 1.6

Exercise: Look up and report measured EC50 for this entry: C[C@@H](NC(=O)c1ccc(OCc2cccc(F)c2)nc1)C1CC1 [Example 1.2c.15]
Key: 0.094

Exercise: Look up and report measured EC50 for this entry: O=C(NCC1CCCCC1)c1ccc(OCc2cccc(F)c2)nc1 [Example 1.2c.16]
Key: 0.23

Exercise: Look up and report measured EC50 for this entry: O=C(Nc1ccccn1)c1ccc(OCc2ccccc2)nc1 [Example 1.2a.4]
Key: 0.41

Exercise: Look up and report measured EC50 for this entry: Cc1nc(OCc2ccccc2)ccc1C(=O)NCCC(C)(C)C [Example 1.2b.3]
Key: 0.4

Exercise: Look up and report measured EC50 for this entry: O=C(NCc1ccccn1)c1ccc(OCc2cccc(F)c2)nc1 [Example 1.2c.8]
Key: 2.7

Exercise: Look up and report measured EC50 for this entry: C[C@@H](NC(=O)c1ccc(OCc2ccncc2)nc1)C1CC1 [Example 1.2i.5]
Key: 4.8

Exercise: Look up and report measured EC50 for this entry: O=C(NC1CCCCC1)c1ccc(OCc2ccc(F)cc2)nc1 [Example 2.3a.6]
Key: 0.75

Exercise: Look up and report measured EC50 for this entry: O=C(Nc1ccccn1)c1ccc(OCc2cccnc2)nc1 [Example 1.2h.1]
Key: 2.9

Exercise: Look up and report measured EC50 for this entry: O=C(Nc1ccc(F)cc1F)c1ccc(OCc2ccc(F)cc2)nc1 [Example 1.2d.2]
Key: 0.21

Exercise: Look up and report measured EC50 for this entry: CC(C)(C)NC(=O)c1ccc(OCc2ccccc2)nc1 [Example 1.2a.6]
Key: 0.23

Exercise: Look up and report measured EC50 for this entry: CC(C)(C)CCNC(=O)c1ccc(OCc2ccncc2)nc1 [Example 2.3c.2]
Key: 0.42

Exercise: Look up and report measured EC50 for this entry: O=C(NC1CCCCC1)c1ccc(OCc2cccc(F)c2)nc1 [Example 1.2c.6]
Key: 0.04

Exercise: Look up and report measured EC50 for this entry: Cc1nc(OCc2ccncc2)ccc1C(=O)NCCC(C)(C)C [Example 1.2n.1]
Key: 3.4

Exercise: Look up and report measured EC50 for this entry: O=C(Nc1ccc(F)cc1F)c1ccc(OCc2ccccc2)nc1 [Example 1.2a.5]
Key: 0.14

----------
Give pEC50 for every item shown.
# TARGET_OR_TEST_SYSTEM: rat mGluR5 (Rattus norvegicus, UniProt P31424)
# Construct: expressed in transfected cells; host or cells: human embryonic kidney (HEK) cells
# PROTOCOL_DESCRIPTION: Potentiation of glutamate response, Ca2+ fluorescence (FDSS) in HEK cells transfected with rat mGluR5
# Type: cell-based
# APPLIED_CONDITIONS: Table 2; potentiation of mGluR5 response to glutamate; read-out: EC50
Please report pEC50 as the negative decimal logarithm of the molar concentration, giving only the number.

Exercise: Look up and report measured pEC50 for this entry: Cc1cc(C(=O)N[C@H](C)C2CCCCC2)cnc1OCc1ccncc1
Key: 5.44

Exercise: Look up and report measured pEC50 for this entry: COC[C@@H](NC(=O)c1ccc(OCc2cccc(F)c2)nc1)C(C)(C)C
Key: 5.72

Exercise: Look up and report measured pEC50 for this entry: O=C(NC(C1CC1)C1CC1)c1ccc(OCc2cccc(F)c2)nc1
Key: 6.52

Exercise: Look up and report measured pEC50 for this entry: CC(C)(C)CCNC(=O)c1cnc(OCc2ccncc2)c(Br)c1
Key: 5.41

Exercise: Look up and report measured pEC50 for this entry: O=C(NC1CCCC1)c1ccc(OCc2ccccc2)nc1
Key: 6.74

Exercise: Look up and report measured pEC50 for this entry: COc1ccc(COc2ccc(C(=O)N[C@H](C)C(C)(C)C)cn2)cc1
Key: 5.27

Exercise: Look up and report measured pEC50 for this entry: COc1cccc(COc2ccc(C(=O)N[C@H](C)C(C)(C)C)cn2)c1
Key: 6.92

----------
Give EC50 for every item shown.
# TARGET_OR_TEST_SYSTEM: rat mGluR5 (Rattus norvegicus)
# Construct: expressed in transfected cells; host or cells: human embryonic kidney (HEK) cells
# PROTOCOL_DESCRIPTION: Potentiation of glutamate response, Ca2+ fluorescence (FDSS) in HEK cells transfected with rat mGluR5
# Type: cell-based
# APPLIED_CONDITIONS: Table 2; potentiation of mGluR5 response to glutamate; read-out: EC50
# Description: Human embryonic kidney (HEK) cells transfected with rat mGluR5 were plated in clear bottom assay plates for assay in a Functional Drug Screening System (FDSS). […] After establishment of a fluorescence baseline for twelve seconds, the compounds of the present invention were added to the cells, and the response in cells was measured. Five minutes later, an mGluR5 agonist (e.g., glutamate, 3,5-dihydroxyphenylglycine, or quisqualate) was added to the cells, and the response of the cells was measured. […]
Number in nM, nothing else.

Exercise: Look up and report measured EC50 for this entry: CC(C)(C)[C@@H](CO)NC(=O)c1ccc(OCc2cccc(F)c2)nc1
Key: 3200

Exercise: Look up and report measured EC50 for this entry: Cc1cc(OCc2cccc(F)c2)ncc1C(=O)Nc1ccc(F)cc1F
Key: 920

Exercise: Look up and report measured EC50 for this entry: O=C(NC12CC3CC(CC(C3)C1)C2)c1ccc(OCc2ccccc2)nc1
Key: 180

Exercise: Look up and report measured EC50 for this entry: Cc1cc(OCc2cccc(F)c2)ncc1C(=O)N[C@H](C)C1CCCCC1
Key: 130

Exercise: Look up and report measured EC50 for this entry: O=C(NC1CC(O)(C(F)(F)F)C1)c1ccc(OCc2cccc(F)c2)nc1 (stereo not shown)
Key: 1800

Exercise: Look up and report measured EC50 for this entry: Cc1cc(OCc2ccncc2)ncc1C(=O)Nc1ccc(F)cc1F
Key: 490

Exercise: Look up and report measured EC50 for this entry: COc1c(F)cccc1COc1ccc(C(=O)N[C@H](C)C(C)(C)C)cn1
Key: 5200

Exercise: Look up and report measured EC50 for this entry: CC(COC(C)(C)C)NC(=O)c1ccc(OCc2cccc(F)c2)nc1 (stereo not shown)
Key: 4200

Exercise: Look up and report measured EC50 for this entry: O=C(N[C@H]1CCCC[C@@H]1O)c1ccc(OCc2ccccc2)nc1
Key: 2800

Exercise: Look up and report measured EC50 for this entry: Cc1cc(C(=O)N[C@H](C)C2CCCCC2)cnc1OCc1cccc(F)c1
Key: 490

Exercise: Look up and report measured EC50 for this entry: Cc1cc(OCc2cccc(F)c2)ncc1C(=O)NCCC(C)(C)C
Key: 960

Exercise: Look up and report measured EC50 for this entry: CC(NC(=O)c1ccc(OCc2cccc(F)c2)nc1)C(C)(C)O (stereo not shown)
Key: 660

Exercise: Look up and report measured EC50 for this entry: C[C@@H](NC(=O)c1ccc(OCc2cccc(F)c2)nc1)C(C)(C)O
Key: 150

Exercise: Look up and report measured EC50 for this entry: Cc1cc(C(=O)NCCC(C)(C)C)cnc1OCc1ccncc1
Key: 5300

Exercise: Look up and report measured EC50 for this entry: CC1CCCCC1NC(=O)c1ccc(OCc2ccccc2)nc1 (stereo not shown)
Key: 36

Exercise: Look up and report measured EC50 for this entry: Cc1cc(OCc2ccncc2)ncc1C(=O)NCCC(C)(C)C
Key: 1700
